Hello, the source for this data is patent US4140707A, in case you need it.

# Tested on: Sarcoma 180
# Method Description: Antitumor activity, solid Sarcoma 180 (Table I), T/C tumor weight ratio, sacrifice day 10
# Format: in vivo, female Swiss white mice
# Run Conditions: 80 mg/kg, single i.p. day 1, vehicle not noted
# Experimental: The compounds of the invention were tested for anti-tumor activity using our standard screening tumor, solid sarcoma 180 tumer in female Swiss white mice, following standard protocols for this testing as set by the National Cancer Institute. (Cancer Chemotherapy Rep., 25(1962)). For these tests an S 180 tumor taken from a sacrificed mouse was disected free of superfluous tissue and cut under sterile conditions into approximately 10 milligram size pieces. […]
Kindly state No. of Deaths for each of the entries shown.

Value lookup for No. of Deaths; key = NCCN.O=C([O-])CC(=O)[O-].[Pt+2] [malonatoethylenediamineplatinum (II)]
0

Fill in: No. of Deaths of "CCC1C(=O)[O][Pt]2([NH]CC[NH]2)[O]C1=O" is ___
0

Look up No. of Deaths: CN.CN.O=C([O-])CC(=O)[O-].[Pt+2] [malonatobis(methylamine) platinum (II)]
0

// No. of Deaths lookup, key: "NCCCN.O=C([O-])CC(=O)[O-].[Pt+2]"
1

What does the data say about its No. of Deaths? Entry: "N.N.O=C([O-])C1(C(=O)[O-])CCC1.[Pt+4]"
0

* * *

# System: Sarcoma 180
# Method Description: Antitumor activity, solid Sarcoma 180 (Table I), T/C tumor weight ratio, sacrifice day 10
# Assay type: in vivo, female Swiss white mice
# Run Conditions: 100 mg/kg, single i.p. day 1, vehicle not noted
Measurement Kind: No. of Deaths
A bare number is all that is needed in reply.

What value of No. of Deaths has been reported for the following compound? "N.N.O=C([O-])C1(C(=O)[O-])CCC1.[Pt+4]"
0

Using the record for CN.CN.O=C([O-])CC(=O)[O-].[Pt+2] [malonatobis(methylamine) platinum (II)] , report its No. of Deaths.
0

GET /values?readout=No. of Deaths&item= "CCC1C(=O)[O][Pt]2([NH]CC[NH]2)[O]C1=O"
1

Recorded No. of Deaths of NCCN.O=C([O-])CC(=O)[O-].[Pt+2] [malonatoethylenediamineplatinum (II)] , please.
0

* * *

# Test system: Sarcoma 180
# Method Description: Antitumor activity, solid Sarcoma 180 (Table I), T/C tumor weight ratio, sacrifice day 10
# Type: in vivo, female Swiss white mice
# Run Conditions: 50 mg/kg, single i.p. day 1, solution in H2O
Measurement Kind: No. of Deaths

Reported No. of Deaths for "CC1C(=O)[O][Pt]2([NH]CC[NH]2)[O]C1=O" : what is it?
0

Any idea what its No. of Deaths is? The molecule is "NCCN.O=C([O-])CC(=O)[O-].[Pt+2]"
0

Any idea what its No. of Deaths is? The molecule is "CC1C(=O)[O][Pt]([NH2])([NH2])[O]C1=O"
0

Looking for the measured No. of Deaths of "CCC(C(=O)[O-])C(=O)[O-].N.N.[Pt+2]" , can you help?
0

* * *

# Test system: Sarcoma 180
# Method Description: Antitumor activity, solid Sarcoma 180 (Table I), T/C tumor weight ratio, sacrifice day 10
# Format: in vivo, female Swiss white mice
# Run Conditions: 60 mg/kg, single i.p. day 1, solution in H2O
Measurement Kind: No. of Deaths
Respond numerically, and do not add a unit to the figure.

Given the entry CCC(C(=O)[O-])C(=O)[O-].N.N.[Pt+2] [ethylmalontodiammineplatinum(II)] , report its measured No. of Deaths.
0

Given the compound "CC1C(=O)[O][Pt]2([NH]CC[NH]2)[O]C1=O" , what is its reported No. of Deaths?
0

Entry under review: CC1C(=O)[O][Pt]([NH2])([NH2])[O]C1=O [Methylmalonatodiammineplatinum(II)] . Reported No. of Deaths?
0

* * *

# Tested on: Sarcoma 180
# Method Description: Antitumor activity, solid Sarcoma 180 (Table I), T/C tumor weight ratio, sacrifice day 10
# Assay type: in vivo, female Swiss white mice
# Run Conditions: 60 mg/kg, single i.p. day 1, vehicle not noted
Measurement Kind: No. of Deaths
// print number alone

No. of Deaths for "CC(N)CN.O=C([O-])CC(=O)[O-].[Pt+2]" ?
1

Consider the compound "N.N.O=C([O-])C1(C(=O)[O-])CCC1.[Pt+4]" and give its measured No. of Deaths.
0

For "NCCN.O=C([O-])CC(=O)[O-].[Pt+2]" , what is its reported No. of Deaths?
0

No. of Deaths lookup needed for "NCCCN.O=C([O-])CC(=O)[O-].[Pt+2]" , thanks.
0

Data request, read-out No. of Deaths, for "CCC1C(=O)[O][Pt]2([NH]CC[NH]2)[O]C1=O"
0
